Data origin: paper PMC7587356

Kindly state inhibition at 5 µM for each of the entries shown.
target: SARS-CoV-2 3CLpro (Severe acute respiratory syndrome coronavirus 2); test: biochemical; format: biochemical; details: 4 h, sheet LOPAC_screen_w_protease; LOPAC1280 primary screen with protease, 5 µM compound; replicate 2; read-out: Replicate_2
Counter-ions that a name gives are not always drawn.
Give bare numbers, in %.

// known answers, use as guide
[
  {
    "COMPOUND": "CN1C[C@@H](NS(=O)(=O)N(C)C)C[C@@H]2c3cccc4c3c(cn4C)C[C@H]21 [Mesulergine hydrochloride]",
    "MEASURED VALUE": 5.86
  },
  {
    "COMPOUND": "Cc1[nH]c(=O)c(C#N)cc1-c1ccncc1 [Milrinone]",
    "MEASURED VALUE": 5.4
  },
  {
    "COMPOUND": "CN(C)C(=O)Oc1cccc([N+](C)(C)C)c1 [Neostigmine bromide]",
    "MEASURED VALUE": 6.13
  },
  {
    "COMPOUND": "c1ccc2c(CC3=NCCN3)cccc2c1 [Naphazoline hydrochloride]",
    "MEASURED VALUE": 4.59
  },
  {
    "COMPOUND": "CC[C@H](C)C(=O)O[C@H]1CCC=C2C=C[C@H](C)[C@H](CC[C@@H]3C[C@@H](O)CC(=O)O3)[C@H]21 [Mevastatin]",
    "MEASURED VALUE": 5.17
  }
]

Each of the following entries comes with a recorded value; kindly state inhibition at 5 µM for each.
1. CN(C)c1ccc(O)c2c1C[C@H]1C[C@H]3[C@H](N(C)C)C(O)=C(C(N)=O)C(=O)[C@@]3(O)C(O)=C1C2=O [Minocycline hydrochloride]
2. CCCCC1C(=O)N(c2ccccc2)N(c2ccccc2)C1=O [Phenylbutazone]
3. COCC(=O)O[C@]1(CCN(C)CCCc2nc3ccccc3[nH]2)CCc2cc(F)ccc2[C@@H]1C(C)C [Mibefradil dihydrochloride]
4. Cc1ccccc1CNc1ncnc2c1ncn2[C@@H]1O[C@H](CO)[C@@H](O)[C@H]1O [Metrifudil]
5. CC#C[C@]1(O)CC[C@H]2[C@@H]3CCC4=CC(=O)CCC4=C3[C@@H](c3ccc(N(C)C)cc3)C[C@@]21C [Mifepristone]
6. COc1ccc(Cc2nccc3cc(OC)c(OC)cc23)cc1OC [Papaverine hydrochloride]
7. CCCN(CCC)C(=O)C(CCC(=O)O)NC(=O)c1ccccc1 (centres unmarked) [Proglumide]

Result:
1: 5.84; 2: 6.3; 3: 5.54; 4: 5.03; 5: 5.7; 6: 5.37; 7: 4.43
